Attribute: pKd
molecular target: MAGI2_6, Q86UL8; test: holdup assay; design: key: below the threshold = too weak to quantify, mostly under pKd 3.1 to 4; conditions: plain residues with an end cap or a label only (N-terminal biotin on a linker: ahx)
Sequence (Q86UL8 1141-1229): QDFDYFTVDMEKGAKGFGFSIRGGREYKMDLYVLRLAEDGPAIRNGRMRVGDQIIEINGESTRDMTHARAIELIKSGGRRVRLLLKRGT
Respond using a number only.

Take a look at these entries with their results.
HSATSVHTSV [MTMR1, Q13613]    3.66
AKPQPVDSWV [ARVCF, O00192]    5.48
PKMKLNETSF [SHKBP1, Q8TBC3]    3.54
VNENQKEYFF [CNTNAP4, Q9C0A0]    3.51
KDECVIATEV [DLL1, O00548]    4.55

# query: pKd of entry YNSFLSVTTV [PDZRN3, Q9UPQ7]
3.6

Do the same for ADENEQVSAV [RAPGEF6, Q8TEU7] please
4.19
